The origin of these recorded values is ChEMBL document CHEMBL1921672.

- Measurement Description: Aqueous solubility of the compound
- Type: physicochemical
- Assay Context: water
Property Measured: solubility (µg/mL)
Give the number; µg/mL is assumed, so skip it.

Please give measured solubility of the following entry: `Cl.Fc1ccc2nc(-c3cccc(-c4cn5ccc(F)cc5n4)c3)[nH]c2c1`
10000

====

- Experimental System: Beta-secretase 2 (Homo sapiens, UniProt Q9Y5Z0)
- Sequence (Q9Y5Z0 63-518 limits assumed, stated change not applied): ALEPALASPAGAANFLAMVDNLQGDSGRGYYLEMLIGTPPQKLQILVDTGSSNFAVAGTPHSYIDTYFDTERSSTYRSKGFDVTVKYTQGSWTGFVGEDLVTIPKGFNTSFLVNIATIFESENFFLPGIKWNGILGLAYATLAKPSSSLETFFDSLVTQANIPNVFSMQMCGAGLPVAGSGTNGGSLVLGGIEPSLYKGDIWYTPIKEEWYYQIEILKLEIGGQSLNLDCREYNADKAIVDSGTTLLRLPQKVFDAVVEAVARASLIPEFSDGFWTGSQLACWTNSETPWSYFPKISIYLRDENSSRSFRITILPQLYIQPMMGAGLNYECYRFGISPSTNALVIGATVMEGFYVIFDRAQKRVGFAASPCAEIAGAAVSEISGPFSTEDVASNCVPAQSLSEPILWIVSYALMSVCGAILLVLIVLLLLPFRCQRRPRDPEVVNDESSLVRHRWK
- Measurement Description: Inhibition of BACE2 expressing APP Swedish mutant using rhodamine-labeled EVNLDAEFK-quencher as substrate after 60 mins by FRET analysis
Property Measured: pIC50
# log scale: pIC50 equals minus log10 of the concentration in mol/L

Structure As Smiles: COc1ccc2nc(-c3cccc(-c4nc5ccccn5c4NC(C)(C)C)c3)[nH]c2c1
Experimental System: Beta-secretase 2 (Homo sapiens, UniProt Q9Y5Z0)
pIC50: 5.38

Please give measured pIC50 of the following entry: `Fc1ccc2nc(-c3cccc(-c4cn5ccc(F)cc5n4)c3)[nH]c2c1`
5.43

Please give measured pIC50 of the following entry: `COc1cccc(-c2c[nH]c(-c3cc(C(=O)N[C@@H](C)c4ccccc4)cc(N(C)S(C)(=O)=O)c3)n2)c1`
5.63

Please give measured pIC50 of the following entry: `C[C@H](NC(=O)c1cc(-c2nc3ccccc3[nH]2)cc(N(C)S(C)(=O)=O)c1)c1ccccc1`
5.67

Please give measured pIC50 of the following entry: `CC(C)(C)Nc1c(-c2cccc(-c3nc4ccc(F)cc4[nH]3)c2)nc2ccccn12`
5.37

Please give measured pIC50 of the following entry: `COc1ccc2nc(-c3cccc(-c4cn5ccccc5n4)c3)[nH]c2c1`
5.48

Please give measured pIC50 of the following entry: `Fc1ccc2nc(-c3cccc(-c4cn5ccccc5n4)c3)[nH]c2c1`
5.50

Please give measured pIC50 of the following entry: `c1cc(-c2cn3ccccc3n2)cc(-c2nc3ccccc3[nH]2)c1`
5.41

Please give measured pIC50 of the following entry: `CC(C)(C)Nc1c(-c2cccc(-c3nc4ccccc4[nH]3)c2)nc2ccccn12`
5.42

Please give measured pIC50 of the following entry: `C[C@H](NC(=O)c1cc(-c2nc(-c3ccccc3)c[nH]2)cc(N(C)S(C)(=O)=O)c1)c1ccccc1`
5.75

Please give measured pIC50 of the following entry: `C[C@H](NC(=O)c1cc(-c2nc3cc(F)ccc3[nH]2)cc(N(C)S(C)(=O)=O)c1)c1ccccc1`
5.67

Please give measured pIC50 of the following entry: `COc1ccc2[nH]c(-c3cc(C(=O)N[C@@H](C)c4ccccc4)cc(N(C)S(C)(=O)=O)c3)nc2c1`
5.62

Please give measured pIC50 of the following entry: `C[C@H](NC(=O)c1cc(-c2ncc(-c3cccc(F)c3)[nH]2)cc(N(C)S(C)(=O)=O)c1)c1ccccc1`
5.73

====

- Experimental System: Beta-secretase 1 (Homo sapiens)
- Sequence (P56817 whole entry): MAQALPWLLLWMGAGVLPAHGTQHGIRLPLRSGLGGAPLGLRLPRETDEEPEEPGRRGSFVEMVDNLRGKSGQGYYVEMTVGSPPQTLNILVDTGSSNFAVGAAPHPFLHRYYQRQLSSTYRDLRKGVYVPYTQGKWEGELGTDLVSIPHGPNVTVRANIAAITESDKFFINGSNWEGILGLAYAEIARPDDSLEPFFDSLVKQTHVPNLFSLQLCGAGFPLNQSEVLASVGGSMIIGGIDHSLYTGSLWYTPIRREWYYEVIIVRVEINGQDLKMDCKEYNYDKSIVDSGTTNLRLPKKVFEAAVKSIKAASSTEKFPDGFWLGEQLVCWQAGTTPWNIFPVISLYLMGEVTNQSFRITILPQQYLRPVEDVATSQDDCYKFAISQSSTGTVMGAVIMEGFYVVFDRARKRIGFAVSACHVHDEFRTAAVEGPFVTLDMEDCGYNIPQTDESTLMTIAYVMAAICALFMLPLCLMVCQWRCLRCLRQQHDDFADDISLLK
- Measurement Description: Inhibition of BACE1 in human H4 cells expressing APP Swedish K595N and M596L double mutant assessed as inhibition of amyloid beta (1 to 40) production after 24 hrs by whole cell assay
- Assay Context: pooled result: one value given for 2 cell lines, strains, targets or settings
Property Measured: pEC50
# log scale: pEC50 equals minus log10 of the concentration in mol/L

Below: 3 molecules and their reported pEC50.
Structure As Smiles: Fc1ccc2nc(-c3cccc(-c4cn5ccccc5n4)c3)[nH]c2c1
pEC50: 6.92
--
Structure As Smiles: c1cc(-c2cn3ccccc3n2)cc(-c2nc3ccccc3[nH]2)c1
pEC50: 5.81
--
Structure As Smiles: C[C@H](NC(=O)c1cc(-c2nc(-c3ccccc3)c[nH]2)cc(N(C)S(C)(=O)=O)c1)c1ccccc1
pEC50: 6.35

Please give measured pEC50 of the following entry: `COc1cccc(-c2c[nH]c(-c3cc(C(=O)N[C@@H](C)c4ccccc4)cc(N(C)S(C)(=O)=O)c3)n2)c1`
6.75

====

- Experimental System: Beta-secretase 1 (Homo sapiens)
- Measurement Description: Inhibition of BACE1 expressing APP Swedish mutant using rhodamine-labeled EVNLDAEFK-quencher as substrate after 60 mins by FRET analysis
Property Measured: pIC50
# log scale: pIC50 equals minus log10 of the concentration in mol/L

Below: 5 compounds and their reported pIC50.
Structure As Smiles: COc1ccc2nc(-c3cccc(-c4cn5ccccc5n4)c3)[nH]c2c1
Experimental System: Beta-secretase 1 (Homo sapiens)
pIC50: 7.59
//
Structure As Smiles: CC(C)(C)Nc1c(-c2ccc(-c3nc4ccc(F)cc4[nH]3)cc2)nc2ccccn12
Experimental System: Beta-secretase 1 (Homo sapiens)
pIC50: 5.61
//
Structure As Smiles: C[C@H](NC(=O)c1cc(-c2nc(-c3ccccc3)c[nH]2)cc(N(C)S(C)(=O)=O)c1)c1ccccc1
Experimental System: Beta-secretase 1 (Homo sapiens)
pIC50: 6.50
//
Structure As Smiles: C[C@H](NC(=O)c1cc(-c2nc3ccccc3[nH]2)cc(N(C)S(C)(=O)=O)c1)c1ccccc1
Experimental System: Beta-secretase 1 (Homo sapiens)
pIC50: 5.97
//
Structure As Smiles: Fc1ccc2nc(-c3cccc(-c4cn5ccccc5n4)c3)[nH]c2c1
Experimental System: Beta-secretase 1 (Homo sapiens)
pIC50: 7.46

Quote pIC50 with test system Beta-secretase 1 (Homo sapiens) for `Fc1ccc2nc(-c3cccc(-c4cn5ccc(F)cc5n4)c3)[nH]c2c1`
7.74

Quote pIC50 with test system Beta-secretase 1 (Homo sapiens) for `C[C@H](NC(=O)c1cc(-c2nc3cc(F)ccc3[nH]2)cc(N(C)S(C)(=O)=O)c1)c1ccccc1`
6.10

====

- Experimental System: UniProt P56817
- Measurement Description: Inhibition of BACE1 expressing APP Swedish mutant using rhodamine-labeled EVNLDAEFK-quencher as substrate after 60 mins by Michaelis-Menten equation
Property Measured: pKi
# log scale: pKi equals minus log10 of the concentration in mol/L

Below: 5 compounds and their reported pKi.
Structure As Smiles: CC(C)(C)Nc1c(-c2ccc(-c3nc4ccccc4[nH]3)cc2)nc2ccccn12
Experimental System: UniProt P56817
pKi: 5.27
//
Structure As Smiles: C[C@H](NC(=O)c1cc(-c2nc3ccccc3[nH]2)cc(N(C)S(C)(=O)=O)c1)c1ccccc1
Experimental System: UniProt P56817
pKi: 5.98
//
Structure As Smiles: Fc1ccc2nc(-c3cccc(-c4cn5ccccc5n4)c3)[nH]c2c1
Experimental System: UniProt P56817
pKi: 7.47
//
Structure As Smiles: c1cc(-c2cn3ccccc3n2)cc(-c2nc3ccccc3[nH]2)c1
Experimental System: UniProt P56817
pKi: 6.03
//
Structure As Smiles: COc1ccc2nc(-c3cccc(-c4nc5ccccn5c4NC(C)(C)C)c3)[nH]c2c1
Experimental System: UniProt P56817
pKi: 6.60

We now examine a further compound.
Please give measured pKi of the following entry: `COc1ccc2nc(-c3cccc(-c4cn5ccccc5n4)c3)[nH]c2c1`
7.60

====

Each item that follows carries a reported IC50.
- Experimental System: Beta-secretase 2 (Homo sapiens, UniProt Q9Y5Z0)
- Measurement Description: Inhibition of BACE2 expressing APP Swedish mutant using rhodamine-labeled EVNLDAEFK-quencher as substrate after 60 mins by FRET analysis
Give the number; µM is assumed, so skip it.

Please give measured IC50 of the following entry: `CC(C)(C)Nc1c(-c2ccc(-c3nc4ccccc4[nH]3)cc2)nc2ccccn12`
5.68

Please give measured IC50 of the following entry: `CC(C)(C)Nc1c(-c2ccc(-c3nc4ccc(F)cc4[nH]3)cc2)nc2ccccn12`
3.72

Please give measured IC50 of the following entry: `COc1ccc2nc(-c3ccc(-c4nc5ccccn5c4NC(C)(C)C)cc3)[nH]c2c1`
2.9

====

- Experimental System: Beta-secretase 1 (Homo sapiens)
- Measurement Description: Inhibition of BACE1 in human H4 cells expressing APP Swedish K595N and M596L double mutant assessed as inhibition of amyloid beta (1 to 40) production after 24 hrs by whole cell assay
- Assay Context: pooled result: one value given for 2 cell lines, strains, targets or settings
pEC50: −log10 of the molar value.
Given measured pEC50, output fulfilled if it is greater than or equal to 7 and not fulfilled if not.

Here's what some known entries look like.
Structure As Smiles: CC(C)(C)Nc1c(-c2cccc(-c3nc4ccc(F)cc4[nH]3)c2)nc2ccccn12
Experimental System: Beta-secretase 1 (Homo sapiens)
Class Assignment: not fulfilled

Structure As Smiles: Fc1ccc2nc(-c3cccc(-c4cn5ccc(F)cc5n4)c3)[nH]c2c1
Experimental System: Beta-secretase 1 (Homo sapiens)
Class Assignment: fulfilled

Test whether the compound `COc1ccc2nc(-c3cccc(-c4nc5ccccn5c4NC(C)(C)C)c3)[nH]c2c1` records pEC50 of 7 or higher.
not fulfilled

Test whether the compound `C[C@H](NC(=O)c1cc(-c2nc3cc(F)ccc3[nH]2)cc(N(C)S(C)(=O)=O)c1)c1ccccc1` records pEC50 of 7 or higher.
not fulfilled

Test whether the compound `COc1ccc2nc(-c3ccc(-c4nc5ccccn5c4NC(C)(C)C)cc3)[nH]c2c1` records pEC50 of 7 or higher.
not fulfilled

Test whether the compound `COc1ccc2nc(-c3cccc(-c4cn5ccccc5n4)c3)[nH]c2c1` records pEC50 of 7 or higher.
fulfilled
